- ASSAY SUMMARY: Tanguay_ZF_120hpf_EYE_legacy: (Legacy) Oregon State University Tanguay Lab 120 Hour Post-fertilization zebrafish Assay for Eye Malformation (AID 2283636);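 also: binary presence or absence of eye malformation scored by brightfield in 120 hpf larvae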
Results filed as inconclusive are left out. Activity calls are given as the source filed them. The calls were made as follows: active = hit-call score of the fitted dose curve at least 0.9, where 1 is the maximum; inconclusive = response in the unintended direction; inactive = score below 0.9.
Permitted responses: active, inactive

Query string: Kindly provide the recorded test outcome for the following molecule: CC1(C)C(=O)N(Br)C(=O)N1Br
Result string: inactive

Query string: Kindly provide the recorded test outcome for the following molecule: CC(C)=CCCC(C)=CC=O
Result string: inactive

Query string: Kindly provide the recorded test outcome for the following molecule: O=C(O)c1cc(N=Nc2ccc(S(=O)(=O)Nc3ccccn3)cc2)ccc1O
Result string: inactive

Query string: Kindly provide the recorded test outcome for the following molecule: Fc1ccccc1[C@@H](F)COC1CCC(Nc2ncnc3[nH]ncc23)CC1 (stereo partly drawn)
Result string: inactive

Query string: Kindly provide the recorded test outcome for the following molecule: COc1cccc(-c2ccc(/C=C\CN3CCCCCC3)cc2Cl)c1
Result string: inactive

Query string: Kindly provide the recorded test outcome for the following molecule: CC(C)CC(C)(O)C#CC(C)(O)CC(C)C (stereo not drawn)
Result string: inactive

Query string: Kindly provide the recorded test outcome for the following molecule: Cn1c(=O)cc(Oc2ccc(F)cc2F)c2cnc(NCC(C)(C)O)nc21
Result string: inactive

Query string: Kindly provide the recorded test outcome for the following molecule: Nc1ccc(Nc2ccccc2)cc1
Result string: active

Query string: Kindly provide the recorded test outcome for the following molecule: O=C1OC(=O)C2C3C=CC(C3)C12 (stereo not drawn)
Result string: inactive

Query string: Kindly provide the recorded test outcome for the following molecule: CC[C@H](C)C(=O)O[C@H]1C[C@@H](C)C=C2C=C[C@H](C)[C@H](CC[C@@H]3C[C@@H](O)CC(=O)O3)[C@H]21
Result string: inactive

Query string: Kindly provide the recorded test outcome for the following molecule: NC(=O)NO
Result string: inactive

Query string: Kindly provide the recorded test outcome for the following molecule: CCn1nc(Cc2ccccc2)cc1C1CCN(C[C@H]2C[C@H](N(C)[C@@H](C(=O)O)C(C)C)C[C@@H]2c2cccc(F)c2)CC1
Result string: inactive

Query string: Kindly provide the recorded test outcome for the following molecule: CCOC(=O)COc1ccc2c(c1)CC(NCC(O)c1cccc(Cl)c1)CC2 (stereo not drawn)
Result string: inactive

Query string: Kindly provide the recorded test outcome for the following molecule: O=C(O)c1cccc(N(Cc2cccnc2)c2ccc(OC(F)F)c(OC(F)F)c2)c1
Result string: inactive

Query string: Kindly provide the recorded test outcome for the following molecule: CC(C)CCCCCCOC(=O)c1ccc(C(=O)OCCCCCCC(C)C)c(C(=O)OCCCCCCC(C)C)c1
Result string: inactive

Query string: Kindly provide the recorded test outcome for the following molecule: Nc1nc2ncc(CNc3ccc(C(=O)N[C@@H](CCC(=O)O)C(=O)O)cc3)nc2c(=O)[nH]1
Result string: inactive

Query string: Kindly provide the recorded test outcome for the following molecule: Cc1ccc(C)c(O)c1
Result string: inactive

Query string: Kindly provide the recorded test outcome for the following molecule: O=C(O)CC(O)C(=O)O (stereo not drawn)
Result string: inactive

====

- Read-out: Transforming growth factor beta 1 (TGFb1), TGFB1 (gene 7040)
- ASSAY SUMMARY: BSK_KF3CT_TGFb1: BioMAP Diversity Plus: KF3CT Assay for Transforming growth factor beta 1 (TGFb1) Biomarker Activity (AID 2283072)
- RECORDED CONDITIONS: primary human keratinocytes with fibroblasts; actives raise or lower the signal
The source made the active and inactive calls. The calls were made as follows: active = hit-call score of the fitted dose curve at least 0.9, where 1 is the maximum; inactive = score below 0.9.
Permitted responses: active, inactive

Query string: Kindly provide the recorded test outcome for the following molecule: COc1ccc2sc(C(=O)Nc3nnn[nH]3)c(OC(C)C)c2c1
Result string: active

Query string: Kindly provide the recorded test outcome for the following molecule: Cn1cnc([N+](=O)[O-])c1Sc1ncnc2nc[nH]c12
Result string: inactive

Query string: Kindly provide the recorded test outcome for the following molecule: O=C(OC[C@H]1O[C@@H](OC(=O)c2cc(O)c(O)c(OC(=O)c3cc(O)c(O)c(O)c3)c2)[C@H](OC(=O)c2cc(O)c(O)c(OC(=O)c3cc(O)c(O)c(O)c3)c2)[C@@H](OC(=O)c2cc(O)c(O)c(OC(=O)c3cc(O)c(O)c(O)c3)c2)[C@@H]1OC(=O)c1cc(O)c(O)c(OC(=O)c2cc(O)c(O)c(O)c2)c1)c1cc(O)c(O)c(OC(=O)c2cc(O)c(O)c(O)c2)c1
Result string: active

Query string: Kindly provide the recorded test outcome for the following molecule: C1N2CN3CN1CN(C2)C3
Result string: inactive

Query string: Kindly provide the recorded test outcome for the following molecule: O=C1CCCCCN1
Result string: inactive

Query string: Kindly provide the recorded test outcome for the following molecule: CC(C)(O)c1coc(S(=O)(=O)NC(=O)Nc2c3c(cc4c2CCC4)CCC3)c1
Result string: inactive

Query string: Kindly provide the recorded test outcome for the following molecule: CCOc1cccc(-n2cc(C(=O)N3CCN(c4cc(C(=O)O)c5ccccc5c4)CC3)nc2-c2ccc(C)cc2)c1
Result string: active

Query string: Kindly provide the recorded test outcome for the following molecule: Fc1ccccc1[C@@H](F)COC1CCC(Nc2ncnc3[nH]ncc23)CC1 (some centres not stated)
Result string: inactive

Query string: Kindly provide the recorded test outcome for the following molecule: C=CCCCCCCCCC(=O)O
Result string: inactive

Query string: Kindly provide the recorded test outcome for the following molecule: CC(C)CC(C)(O)C#CC(C)(O)CC(C)C (configuration not stated)
Result string: inactive

Query string: Kindly provide the recorded test outcome for the following molecule: O=P(OC(CCl)CCl)(OC(CCl)CCl)OC(CCl)CCl
Result string: inactive

Query string: Kindly provide the recorded test outcome for the following molecule: CCCC(=O)OCC
Result string: inactive

Query string: Kindly provide the recorded test outcome for the following molecule: O=C1CCC(N2C(=O)c3ccccc3C2=O)C(=O)N1 (configuration not stated)
Result string: inactive

Query string: Kindly provide the recorded test outcome for the following molecule: CC(C)=CCCC(C)CCO (configuration not stated)
Result string: inactive

Query string: Kindly provide the recorded test outcome for the following molecule: CC(C)CCO
Result string: inactive

Query string: Kindly provide the recorded test outcome for the following molecule: C[C@](N)(Cc1ccc(O)c(O)c1)C(=O)O
Result string: inactive

Query string: Kindly provide the recorded test outcome for the following molecule: CCOC(=O)c1ccc(C2CCC(NC[C@H](O)COc3ccc(O)c(NS(C)(=O)=O)c3)CC2)cc1 (some centres not stated)
Result string: active

Query string: Kindly provide the recorded test outcome for the following molecule: Cc1c(-c2cccnc2)c2ccccc2n1CCCCC(=O)O
Result string: inactive

Query string: Kindly provide the recorded test outcome for the following molecule: CC[C@H]1OC(=O)[C@H](C)[C@@H](O[C@H]2C[C@@](C)(OC)[C@@H](O)[C@H](C)O2)[C@H](C)[C@@H](O[C@@H]2O[C@H](C)C[C@H](N(C)C)[C@H]2O)[C@](C)(O)C[C@@H](C)C(=O)[C@H](C)[C@@H](O)[C@]1(C)O
Result string: inactive

Query string: Kindly provide the recorded test outcome for the following molecule: CCNc1ccccc1
Result string: inactive

Query string: Kindly provide the recorded test outcome for the following molecule: CCc1cc(SCc2sc(-c3ccc(C(F)(F)F)cc3)nc2CN2CCN(c3ccc(OC)cc3)CC2)ccc1OCC(=O)O
Result string: active

Query string: Kindly provide the recorded test outcome for the following molecule: Cc1[nH]cnc1C[C@H]1CCc2c(C)c3ccccc3n2C1=O
Result string: inactive

Query string: Kindly provide the recorded test outcome for the following molecule: CNCc1ccc(NC(=O)c2c[nH]c3c2C(=O)CCC3)cc1
Result string: inactive

Query string: Kindly provide the recorded test outcome for the following molecule: Nc1nc2ncc(CNc3ccc(C(=O)N[C@@H](CCC(=O)O)C(=O)O)cc3)nc2c(=O)[nH]1
Result string: inactive

Query string: Kindly provide the recorded test outcome for the following molecule: O=C(O)CCN(C1(C(=O)NO)CCCC1)S(=O)(=O)c1ccc(Oc2ccc(F)cc2)cc1
Result string: inactive

Query string: Kindly provide the recorded test outcome for the following molecule: CCCN(C1CCN(C(=O)C2CCNCC2)CC1)[C@@H]1CCc2ccc(OC)cc2C1
Result string: inactive

Query string: Kindly provide the recorded test outcome for the following molecule: O=C(CCCCCCCCc1cccnc1)N1CCC(C=C(c2ccccc2)c2ccccc2)CC1
Result string: active
